Test system: SNB-75 CNS
Test: NCI tumour cell line growth inhibition, 48 h
value type: log10 TGI (log10 of the value in µM)

# molecule, log10 TGI
records = [
    ("CC1=c2c(oc3cc(O)c(Nc4c(C)cc(O)cc4O)c(C)c23)=CC(=O)C1=Nc1c(C)cc(O)cc1O", 1.95),
    ("COc1cc(/C=C/c2ccc(/C=C/c3cc(OC)c(OC)c(OC)c3)cc2)cc(OC)c1OC", 1.29),
    ("COc1ccc2c(-c3ccc(OCCN(C)C)cc3)c(Oc3ccccc3)c(=O)oc2c1", 1.33),
    ("Cc1cnc(Cl)nc1C(C#N)c1nc2ccccc2s1 (configuration not stated)", 1.73),
    ("NCCCCCCn1c2c(c3ccccc3c1=O)C(=O)c1ccccc1-2", 0.89),
    ("CC(C)OP(=O)(OC(C)C)C([CH2][Sn]([CH3])([CH3])[Cl])P(=O)(OC(C)C)OC(C)C", 1.64),
    ("O=CC1C(Cl)=Nc2nc3ccccc3n2C1c1ccc([N+](=O)[O-])cc1 (configuration not stated)", 0.72),
    ("C=CS(=O)(=O)c1c2cc(OC)ccc2nc2ccc(OC)cc12", 1.42),
    ("COc1ccc2c(c1)CN1C(=N2)CSC1c1c(Cl)cccc1[N+](=O)[O-] (configuration not stated)", 1.87),
    ("O=c1c(O)c(-c2ccccc2)n(O)c2ccc(Cl)cc12", 1.91),
    ("C=C(CN(C)C)C(=O)c1ccc(OC2OC(COC(C)=O)C(OC(C)=O)C(OC(C)=O)C2OC(C)=O)cc1 (configuration not stated)", 1.59),
    ("COc1ccc(N=Nc2c(O)ccc3ccccc23)cc1", 1.58),
]

====

Tested on: IGROV1 ovarian
Assay: NCI tumour cell line growth inhibition, 48 h

# query smiles, measurement target, TGI
rows = [
    ("CCCCCCCCCCCC(=O)c1c(O)cc(C)oc1=O", "IGROV1 ovarian", "> 100 µM"),
    ("Cc1cc(C)c(C#N)c(SCC(=O)c2sc3c(C#N)c(C)cc(C)[n+]3c2[O-])n1", "IGROV1 ovarian", "> 100 µM"),
    ("O=c1cc(-c2ccccc2)[nH]c2ccc(N3CCCCC3)cc12", "IGROV1 ovarian", "> 100 µM"),
    ("N#Cc1c(-c2ccc(Cl)cc2)cc(-c2ccc(Nc3ccnc4cc(C(F)(F)F)ccc34)cc2)nc1N", "IGROV1 ovarian", "> 100 µM"),
    ("CCC(=O)O[C@H]1CC[C@H]2[C@@H]3CCC4=CC(=O)C=C[C@]4(O)[C@H]3CC[C@]12C", "IGROV1 ovarian", "> 100 µM"),
]

====

Test system: DMS 273 small cell lung
Assay: NCI tumour cell line growth inhibition, 48 h
value type: TGI

# molecule, measurement target, value type, result
data = [
    ("CC(=O)CC(=O)Nc1c(C)[c]([Hg][O]C(C)=O)c(C)[c]([Hg][O]C(C)=O)[c]1[Hg][O]C(C)=O", "DMS 273 small cell lung", "TGI", "50.4 µM"),
    ("N#CC(/C(=N/N=C(N)N)C(=O)Nc1ccccc1[N+](=O)[O-])c1nc(-c2ccc([N+](=O)[O-])cc2)cs1 (stereo not drawn)", "DMS 273 small cell lung", "TGI", "> 100 µM"),
    ("Cc1ccccc1C1=C/C(=C(\\SS/C(C(=O)c2ccc(OCC(=O)O)c(Cl)c2Cl)=C2\\C=C(c3ccccc3C)SS2)C(=O)c2ccc(OCC(=O)O)c(Cl)c2Cl)SS1", "DMS 273 small cell lung", "TGI", "36.7 µM"),
    ("[Co+2].[O-]c1ccccc1C=NCc1ccccc1.[O-]c1ccccc1C=NCc1ccccc1", "DMS 273 small cell lung", "TGI", "> 100 µM"),
    ("O=c1c2c([nH]c3cc4c(cc13)OCO4)-c1ccccc1C2", "DMS 273 small cell lung", "TGI", "42.3 µM"),
    ("O=c1c(O)c(-c2ccccc2)n(O)c2ccc(Cl)cc12", "DMS 273 small cell lung", "TGI", "58.6 µM"),
    ("Oc1c(-c2ccccc2)nc2ccccn12", "DMS 273 small cell lung", "TGI", "> 100 µM"),
    ("COc1ccc(/C(Cl)=C(\\C=O)c2ccc(Cl)c(Cl)c2)cc1", "DMS 273 small cell lung", "TGI", "32.8 µM"),
    ("C=C(Nc1ccc(OC)cc1OC)C(=O)Cc1cccc[n+]1[O-]", "DMS 273 small cell lung", "TGI", "> 100 µM"),
    ("C/C(=N\\NC(C)(C)C)c1sc(-c2nc(C)c(/C(C)=N/NC(C)(C)C)s2)nc1C", "DMS 273 small cell lung", "TGI", "> 100 µM"),
    ("CCOC(=O)C1N(S(=O)(=O)c2ccc(C)cc2)CCC12c1ccccc1NC2c1ccc(OC)c(OC)c1 (stereo not drawn)", "DMS 273 small cell lung", "TGI", "> 100 µM"),
    ("CC#CC(OCC)(OCC)OCC", "DMS 273 small cell lung", "TGI", "49.1 µM"),
    ("COc1cc(/C=C/c2ccc(/C=C/c3cc(OC)c(OC)c(OC)c3)cc2)cc(OC)c1OC", "DMS 273 small cell lung", "TGI", "> 48.9 µM"),
    ("CC(C)(C)c1cc(Cc2ccc([N+](C)(C)C)cc2)c(O)c(C(C)(C)C)c1", "DMS 273 small cell lung", "TGI", "22.2 µM"),
    ("CCOCc1cc(=O)c2c(O)cc3c(c2o1)CCC(C)(C)O3", "DMS 273 small cell lung", "TGI", "> 100 µM"),
    ("Nc1nc(=S)c2c(ncn2CC(O)CO)[nH]1 (stereo not drawn)", "DMS 273 small cell lung", "TGI", "> 100 µM"),
    ("Cc1ccccc1OCC(COC(=O)Nc1ccccc1)OC(=O)Nc1ccccc1 (stereo not drawn)", "DMS 273 small cell lung", "TGI", "> 100 µM"),
    ("CC(=O)N(C)c1ccc2ncccc2c1[N+](=O)[O-]", "DMS 273 small cell lung", "TGI", "> 100 µM"),
    ("Cc1cn(C2CC(n3cncn3)C(C(C)O)O2)c(=O)[nH]c1=O (stereo not drawn)", "DMS 273 small cell lung", "TGI", "> 100 µM"),
    ("CCCCCCCCCCCc1noc2c1C(=O)C(O)CC2 (stereo not drawn)", "DMS 273 small cell lung", "TGI", "30.4 µM"),
    ("O=C(Nc1nc2ncn(CCNCCn3cnc4nc(NC(=O)c5ccccc5)[nH]c(=O)c43)c2c(=O)[nH]1)c1ccccc1", "DMS 273 small cell lung", "TGI", "> 100 µM"),
    ("CCOC(=O)C(Cc1ccc([N+](=O)[O-])cc1)NC(=O)CC1c2ccccc2-c2ccccc21 (stereo not drawn)", "DMS 273 small cell lung", "TGI", "> 100 µM"),
    ("COC1=CC(=C(C#N)C(=Nc2ccccc2)SC)C=C(OC)C1=O", "DMS 273 small cell lung", "TGI", "> 100 µM"),
]
